The following compounds are shown together with reported GI90 values.
Test: Cytotoxicity against human THP1 cells assessed as growth inhibition after 48 hrs by MTT assay
Type: cell-based, THP-1
Conditions: thp-1, 48 h
Readout type: GI90

INSERT INTO assay_data (smiles_string, readout_type, result) VALUES
  ('Clc1ccc(OCc2cn(Cc3ccc(Br)cc3)nn2)cc1', 'GI90', '> 100 µg/mL'),
  ('O=[N+]([O-])c1ccc(Cn2cc(COc3ccccc3)nn2)cc1', 'GI90', '> 100 µg/mL'),
  ('Cc1ccc(OCc2cn(Cc3ccc(Cl)cc3)nn2)cc1', 'GI90', '> 100 µg/mL');

###

Catalogue of selectivity ratio values
Assay: Selectivity index, ratio of GI50 for human PANC1 cells to MIC for dormant phase Mycobacterium tuberculosis H37Ra ATCC 25177
Format: toxicity, cell-based, PANC-1
Settings: read-out: Selectivity Index
Readout type: selectivity ratio

INSERT INTO assay_data (compound, result) VALUES
  ('Clc1cc(Cl)c(OCc2cn(Cc3ccc(Br)cc3)nn2)c(Cl)c1', '> 3.6'),
  ('O=[N+]([O-])c1cccc(Cn2cc(COc3ccc(Cl)cc3)nn2)c1', '> 3.4'),
  ('Clc1ccc(OCc2cn(Cc3ccc(Br)cc3)nn2)cc1', '> 17.3'),
  ('O=[N+]([O-])c1ccc(Cn2cc(COc3ccc(Cl)cc3)nn2)cc1', '> 3.6'),
  ('Cc1ccc(OCc2cn(Cc3ccc(Cl)cc3)nn2)cc1', '> 4.1'),
  ('CC(=O)O[C@H]1C(=O)[C@@]2(C)[C@H]([C@H](OC(=O)c3ccccc3)[C@]3(O)C[C@H](OC(=O)[C@H](O)[C@@H](NC(=O)c4ccccc4)c4ccccc4)C(C)=C1C3(C)C)[C@]1(OC(C)=O)CO[C@@H]1C[C@@H]2O [PACLITAXEL]', '> 2330'),
  ('Cc1ccc(OCc2cn(Cc3cccc(Cl)c3)nn2)cc1', '> 3.5'),
  ('Cc1cc(OCc2cn(Cc3ccc(Cl)cc3)nn2)ccc1Cl', '> 3.7');

These data points were gathered from ChEMBL document CHEMBL3739373.
